Provide the recorded inhibition in vivo at 50 mg/kg for the entries that follow.
System: Rattus norvegicus
assayProcedure: Antiallergic activity in anti-egg albumin homocytotropic antibody-sensitized Sprague-Dawley rat assessed as inhibition of passive cutaneous anaphylaxis reaction at 50 mg/kg, po administered 20 mins prior to antigen egg albumin challenge
Assay type: functional
Entry rule: numbers only, all in %.

Req: // lookup inhibition in vivo at 50 mg/kg for CCOC(=O)C(=O)Nc1cccc(NC(=O)C(=O)OCC)c1Cl
Resp: 17

Req: // lookup inhibition in vivo at 50 mg/kg for CCOC(=O)C(=O)Nc1cccc(NC(=O)C(=O)OCC)c1OC
Resp: 11

Req: // lookup inhibition in vivo at 50 mg/kg for CCCCc1ccc(NC(=O)C(=O)OCC)cc1NC(=O)C(=O)OCC
Resp: 0

Req: // lookup inhibition in vivo at 50 mg/kg for CCOC(=O)C(=O)Nc1cc(C(=O)O)cc(NC(=O)C(=O)OCC)c1C
Resp: 0

Req: // lookup inhibition in vivo at 50 mg/kg for CCOC(=O)C(=O)Nc1cc(NC(=O)C(=O)OCC)cc(NC(=O)C(=O)OCC)c1
Resp: 0

Req: // lookup inhibition in vivo at 50 mg/kg for CCOC(=O)C(=O)Nc1cc(C(=O)O)cc(NC(=O)C(=O)OCC)c1Cl
Resp: 41

Req: // lookup inhibition in vivo at 50 mg/kg for CCOC(=O)C(=O)Nc1cc(C(=O)OC)cc(NC(=O)C(=O)OCC)c1Cl
Resp: 7

Req: // lookup inhibition in vivo at 50 mg/kg for CCOC(=O)C(=O)Nc1cc(S(C)(=O)=O)cc(NC(=O)C(=O)OCC)c1Cl
Resp: 0

Req: // lookup inhibition in vivo at 50 mg/kg for CCOC(=O)C(=O)Nc1ccc(C)c(NC(=O)C(=O)OCC)c1
Resp: 38

Req: // lookup inhibition in vivo at 50 mg/kg for CCOC(=O)C(=O)Nc1cc(C#N)c(Cl)c(NC(=O)C(=O)OCC)c1
Resp: 20
